system: Panc 05.04 cells (pancreatic cancer cells; Q699H and K700E mutations in SF3B1); assay: Cell viability assay (CellTiter-Glo, 72 hr), Panc 05.04 cells; type: cell-based; settings: Panc 05.04 cells (mutant SF3B1); maximum achievable response in tested dose range, negative value = cellular lethality; read-out: Panc 05.04 (mt SF3B1 cells) Emax (%)
Note to self: Emax under -70% means True, ties and anything higher get False.

[
  {
    "molecule": "C/C(=C\\C=C\\[C@@H](C)COC(=O)N1Cc2ccccc2C1)[C@H]1OC(=O)C[C@H](O)CC[C@@](C)(O)[C@@H](OC(=O)N2CCN(C)CC2)/C=C/[C@@H]1C",
    "discrete_label": "False"
  },
  {
    "molecule": "C/C(=C\\C=C\\[C@@H](C)c1ccccn1)[C@H]1OC(=O)C[C@H](O)CC[C@@](C)(O)[C@@H](OC(=O)N2CCN(C3CCCCCC3)C(C)C2)/C=C/[C@@H]1C (some centres unmarked)",
    "discrete_label": "False"
  },
  {
    "molecule": "COCc1ccc(CCC(C)/C=C/C=C(\\C)[C@H]2OC(=O)C[C@H](O)CC[C@@](C)(O)[C@@H](OC(C)=O)/C=C/[C@@H]2C)cc1 (some centres unmarked)",
    "discrete_label": "False"
  },
  {
    "molecule": "C/C(=C\\C=C\\[C@@H](C)COC(=O)N1CC[C@H](F)C1)[C@H]1OC(=O)C[C@H](O)CC[C@@](C)(O)[C@@H](OC(=O)N2CCN(C)CC2)/C=C/[C@@H]1C",
    "discrete_label": "True"
  }
]

---

Emax: recorded values
test system: Panc 05.04 cells (pancreatic cancer cells; Q699H and K700E mutations in SF3B1); assay: Cell viability assay (CellTiter-Glo, 72 hr), Panc 05.04 cells; assay type: cell-based; details: Panc 05.04 cells (mutant SF3B1); maximum achievable response in tested dose range, negative value = cellular lethality; read-out: Panc 05.04 (mt SF3B1 cells) Emax (%)

[
  {
    "compound": "C/C(=C\\C=C\\[C@@H](C)COC(=O)N1CCC[C@H]1CF)[C@H]1OC(=O)C[C@H](O)CC[C@H](C)[C@@H](OC(=O)N2CCN(C3CCCCCC3)CC2)/C=C/[C@@H]1C",
    "endpoint_unit": "%",
    "Emax": -77.7
  },
  {
    "compound": "CC(=O)O[C@H]1/C=C/[C@H](C)[C@@H](/C(C)=C/C=C/[C@@H](C)COC(=O)N2CCC[C@H]2C)OC(=O)C[C@H](O)CC[C@@]1(C)O",
    "endpoint_unit": "%",
    "Emax": -79.3
  },
  {
    "compound": "CCOc1cccc(CCC(C)/C=C/C=C(\\C)[C@H]2OC(=O)C[C@H](O)CC[C@@](C)(O)[C@@H](OC(C)=O)/C=C/[C@@H]2C)c1 (some centres unmarked)",
    "endpoint_unit": "%",
    "Emax": -32
  },
  {
    "compound": "CC(=O)O[C@H]1/C=C/[C@H](C)[C@@H](/C(C)=C/C=C/C(C)c2cccc(OCC(C)C)n2)OC(=O)C[C@H](O)CC[C@@]1(C)O (some centres unmarked)",
    "endpoint_unit": "%",
    "Emax": -27.1
  },
  {
    "compound": "C/C(=C\\C=C\\C(C)c1ccnc(N(C)C)n1)[C@H]1OC(=O)CCCCC[C@@H](OC(=O)N2CCN(C3CCCCCC3)CC2)/C=C/[C@@H]1C (some centres unmarked)",
    "endpoint_unit": "%",
    "Emax": 52
  },
  {
    "compound": "CC(=O)O[C@H]1/C=C/[C@H](C)[C@@H](/C(C)=C/C=C/[C@@H](C)COC(=O)N2CCCCC2)OC(=O)C[C@H](O)CC[C@@]1(C)O",
    "endpoint_unit": "%",
    "Emax": -74.6
  },
  {
    "compound": "C/C(=C\\C=C\\[C@@H](C)COC(=O)N1CC[C@@H](O)C1)[C@H]1OC(=O)CCCCC[C@@H](OC(=O)N2CCN(C)CC2)/C=C/[C@@H]1C",
    "endpoint_unit": "%",
    "Emax": -87
  },
  {
    "compound": "CC[C@H](O)[C@@H](C)NC(=O)OC[C@H](C)/C=C/C=C(\\C)[C@H]1OC(=O)C[C@H](O)CC[C@@](C)(O)[C@@H](OC(C)=O)/C=C/[C@@H]1C",
    "endpoint_unit": "%",
    "Emax": -92.8
  },
  {
    "compound": "C/C(=C\\C=C\\[C@@H](C)c1ccccn1)[C@H]1OC(=O)C[C@H](O)CC[C@@](C)(O)[C@@H](OC(=O)N2CC3CCC(C2)N3C2CCCCCC2)/C=C/[C@@H]1C",
    "endpoint_unit": "%",
    "Emax": -95.7
  },
  {
    "compound": "C/C(=C\\C=C\\[C@@H](C)COC(=O)N1CCC[C@H]1CF)[C@H]1OC(=O)C[C@H](O)CC[C@@](C)(O)[C@@H](OC(=O)N2CCN(C3CCCCCC3)CC2)/C=C/[C@@H]1C",
    "endpoint_unit": "%",
    "Emax": -72.7
  },
  {
    "compound": "C/C(=C\\C=C\\C(C)(C)COC(=O)N1CCCC1)[C@H]1OC(=O)C[C@H](OC(=O)N2CCCC2)CC[C@@](C)(O)[C@@H](OC(=O)N2CCN(C3CCCCCC3)CC2)/C=C/[C@@H]1C",
    "endpoint_unit": "%",
    "Emax": -92.4
  },
  {
    "compound": "C/C(=C\\C=C\\[C@@H](C)COC(=O)N1CCCC1)[C@H]1OC(=O)C[C@@H](O)CC[C@@](C)(O)[C@@H](OC(=O)N2CCN(C)CC2)/C=C/[C@@H]1C",
    "endpoint_unit": "%",
    "Emax": -95.4
  },
  {
    "compound": "C/C(=C\\C=C\\[C@@H](C)COC(=O)N1CC[C@@H](O)C1)[C@H]1OC(=O)C[C@H](O)CC[C@@](C)(O)[C@@H](OC(=O)N2CCN(C)CC2)/C=C/[C@@H]1C",
    "endpoint_unit": "%",
    "Emax": -94.8
  },
  {
    "compound": "C/C(=C\\C=C\\[C@@H](C)COC(=O)N1CC[C@@H](NC(=O)OC(C)(C)C)C1)[C@H]1OC(=O)C[C@H](O)CC[C@@](C)(O)[C@@H](OC(=O)N2CCN(C3CCCCCC3)CC2)/C=C/[C@@H]1C",
    "endpoint_unit": "%",
    "Emax": -59.6
  },
  {
    "compound": "C/C(=C\\C=C\\[C@@H](C)COC(=O)N1CCC[C@H]1CO)[C@H]1OC(=O)C[C@H](O)CC[C@@](C)(O)[C@@H](OC(=O)N2CCN(C3CCCCCC3)CC2)/C=C/[C@@H]1C",
    "endpoint_unit": "%",
    "Emax": -70.4
  },
  {
    "compound": "C/C(=C\\C=C\\[C@@H](C)COC(=O)N1CCC[C@H]1CO)[C@H]1OC(=O)CCCC[C@@](C)(O)[C@@H](OC(=O)N2CCN(C)CC2)/C=C/[C@@H]1C",
    "endpoint_unit": "%",
    "Emax": -72.3
  },
  {
    "compound": "C/C(=C\\C=C\\[C@@H](C)c1ccccn1)[C@H]1OC(=O)C[C@H](O)CC[C@@](C)(O)[C@@H](OC(=O)N2CCNCC2)/C=C/[C@@H]1C",
    "endpoint_unit": "%",
    "Emax": -76.5
  },
  {
    "compound": "C/C(=C\\C=C\\[C@@H](C)COC(=O)N1CCC2(COC2)C1)[C@H]1OC(=O)C[C@H](O)CC[C@@](C)(O)[C@@H](OC(=O)N2CCN(C3CCCCCC3)CC2)/C=C/[C@@H]1C",
    "endpoint_unit": "%",
    "Emax": -76.4
  },
  {
    "compound": "CC(=O)O[C@H]1/C=C/[C@H](C)[C@@H](/C(C)=C/C=C/[C@@H](C)COC(=O)N2CC[C@H](O)C2)OC(=O)C[C@H](O)CC[C@@]1(C)O",
    "endpoint_unit": "%",
    "Emax": -89.6
  },
  {
    "compound": "C/C(=C\\C=C\\C(C)c1ccnc(N2CCCC2)n1)[C@H]1OC(=O)CCCCC[C@@H](OC(=O)N2CCN(C3CCCCCC3)CC2)/C=C/[C@@H]1C (some centres unmarked)",
    "endpoint_unit": "%",
    "Emax": 52
  }
]

---

Tested on: Panc 05.04 cells (pancreatic cancer cells; Q699H and K700E mutations in SF3B1)
Assay: Cell viability assay (CellTiter-Glo, 72 hr), Panc 05.04 cells
Type: cell-based
Details: Panc 05.04 cells (mutant SF3B1); maximum achievable response in tested dose range, negative value = cellular lethality; read-out: Panc 05.04 (mt SF3B1 cells) Emax (%)
Procedure: Cells (WiDr and Panc05.04 obtained from ATCC) were seeded in 96-well plates, with 2000 cells/100 μL/well, and incubated overnight. […] Another plate with cells seeded was dedicated as a time zero (Tz) plate, to which was added 0.1% DMSO in media (100 μL/well) followed by CellTiter-Glo® reagent (Promega Corporation, Madison, Wisconsin) (50 μL/well) for ATP measurement as a surrogate of cell viability. […] Then, CellTiter-Glo® reagent (50 μL/well) was added and ATP was measured. […]
Note to self: Emax under -90% means true, ties and anything higher get false.

[
  {
    "molecule": "C/C(=C\\C=C\\C(C)c1ccnc(N2CCCC2)n1)[C@H]1OC(=O)C[C@H](O)CC[C@@](C)(O)[C@@H](OC(=O)N2CCN(C3CCCCCC3)CC2)/C=C/[C@@H]1C (some centres unmarked)",
    "discrete_label": "true"
  },
  {
    "molecule": "C/C(=C\\C=C\\[C@@H](C)COC(=O)N1CC[C@@H](Oc2nnnn2-c2ccccc2)C1)[C@H]1OC(=O)CCCC[C@@](C)(O)[C@@H](OC(=O)N2CCN(C)CC2)/C=C/[C@@H]1C",
    "discrete_label": "true"
  },
  {
    "molecule": "CC(=O)O[C@H]1/C=C/[C@H](C)[C@@H](/C(C)=C/C=C/C(C)(O)c2ccccc2)OC(=O)C[C@H](O)CC[C@@]1(C)O (some centres unmarked)",
    "discrete_label": "false"
  },
  {
    "molecule": "C/C(=C\\C=C\\C(C)c1cccnc1)[C@H]1OC(=O)C[C@H](O)CC[C@@](C)(O)[C@@H](OC(=O)N2CCC(N3CCC(F)(F)CC3)CC2)/C=C/[C@@H]1C (some centres unmarked)",
    "discrete_label": "false"
  },
  {
    "molecule": "C/C(=C\\C=C\\[C@H](C)c1ncccn1)[C@H]1OC(=O)C[C@H](O)CC[C@@](C)(O)[C@@H](OC(=O)N2CCN(C3CCCCCC3)CC2)/C=C/[C@@H]1C",
    "discrete_label": "true"
  },
  {
    "molecule": "C/C(=C\\C=C\\[C@@H](C)c1ccccn1)[C@H]1OC(=O)C[C@H](O)CC[C@H](C)[C@@H](OC(=O)N2CCN(C)CC2)/C=C/[C@@H]1C",
    "discrete_label": "true"
  }
]
